All values here come from patent US11377451B2.

# TEST NAME: Protein binding (fraction unbound in blood and brain)
# ASSAY CONTEXT: brain, Fu (brain), fraction unbound
READOUT LABEL: fraction unbound

Please review the entries below; each comes with its answer.
- MOLECULE: "CN1CCN(C[C@H]2COc3cc4ncnc(Nc5cccc(Br)c5F)c4cc3O2)CC1 [JGK068S]"
  READOUT LABEL: "fraction unbound"
  TEST RESULT: 0.0186
- MOLECULE: "Fc1c(Cl)cccc1Nc1ncnc2cc3c(cc12)OCCO3 [JGK010]"
  READOUT LABEL: "fraction unbound"
  TEST RESULT: 0.011
- MOLECULE: "Fc1c(Br)cccc1Nc1ncnc2cc3c(cc12)OC(CN1CCOCC1)CO3 (racemic) [JGK063]"
  READOUT LABEL: "fraction unbound"
  TEST RESULT: 0.0378

(a) Fc1c(Br)cccc1Nc1ncnc2cc3c(cc12)OCCO3 [JGK037]
(b) CN(C)CC1COc2cc3ncnc(Nc4cccc(Br)c4F)c3cc2O1 (racemic) [JGK066]
Exam item: API: POST /compare with a and b ; response names the item with higher fraction unbound. Write the label of whichever entry you select.
Marked response: b
(b: 0.0302, a: 0.0104)

----------
# System: HK301
# TEST NAME: GI50 assay (Cell Titer Glo proliferation, 3 days)
# Type: cell-based, human
# ASSAY CONTEXT: Homo sapiens, 72 h; HK301, 3 days; read-out: HK301 GI50
READOUT LABEL: GI50 (µM)
# output: bare number, implied unit µM

- COMPOUND: "COC(=O)[C@H](Cc1ccc(NC(=O)COc2cc3c(Nc4cccc(Cl)c4F)ncnc3cc2OC)cc1)NC(=O)OC(C)(C)C"
  READOUT UNIT: "µM"
  GI50: 156
- COMPOUND: "COC1N=C(N(C(=O)OC(C)(C)C)c2cccc(Cl)c2F)c2cc3c(cc2N1C(=O)OC(C)(C)C)OCCO3 (centres unmarked)"
  READOUT UNIT: "µM"
  GI50: 1.55
- COMPOUND: "Fc1cccc(Nc2ncnc3cc4c(cc23)OCCO4)c1F"
  READOUT UNIT: "µM"
  GI50: 1.69

Exam item: I would be grateful if you could share the reported GI50 for `CC(C)(C)OC(=O)N(CCS(C)(=O)=O)Cc1ccc(-c2ccc3ncnc(Nc4ccc(OCc5cccc(F)c5)c(Cl)c4)c3c2)o1` .
Marked response: 81.3

Exam item: And for `N#Cc1cccc(Nc2ncnc3cc4c(cc23)OCCO4)c1` ?
Marked response: 3.94

Exam item: And for `Brc1cccc(Nc2ncnc3cc4c(cc23)OCCO4)c1` ?
Marked response: 2.06

Exam item: And for `C#Cc1cccc(Nc2ncnc3cc(OC(=O)c4ccccc4)c(OC(=O)c4ccccc4)cc23)c1` ?
Marked response: 11

Exam item: And for `C#Cc1cccc(N(C(C)=O)c2ncnc3cc(OCCOC)c(OCCOC)cc23)c1` ?
Marked response: 5.45

Exam item: And for CN1CCN(CC2COc3cc4ncnc(Nc5cccc(Br)c5F)c4cc3O2)CC1 (racemic) ?
Marked response: 0.577

Exam item: And for `COC(=O)[C@H](Cc1ccc(Nc2ncnc3cc(O)c(O)cc23)cc1)NC(=O)OC(C)(C)C` ?
Marked response: 29.2

Exam item: And for Fc1c(Br)cccc1Nc1ncnc2cc3c(cc12)OCC(CCN1CCCC1)O3 (racemic) ?
Marked response: 3.16

Exam item: And for CC1Oc2cc3ncnc(Nc4cccc(Br)c4F)c3cc2OC1C (racemic) ?
Marked response: 8.25

Exam item: And for Fc1c(Br)cccc1Nc1ncnc2cc3c(cc12)OCC(CN1CCOCC1)O3 (racemic) ?
Marked response: 6.16

Exam item: And for OC[C@H]1COc2cc3ncnc(Nc4cccc(Br)c4F)c3cc2O1 [JGK082S] ?
Marked response: 1.67

Exam item: And for C[C@@H]1Oc2cc3c(Nc4cccc(Br)c4F)ncnc3cc2O[C@@H]1C (racemic) ?
Marked response: 3.87

Exam item: And for Fc1c(Br)cccc1Nc1ncnc2cc3c(cc12)OCC(CN1CCCC1)O3 (racemic) ?
Marked response: 7.21

Exam item: And for CN1CCN(C[C@@H]2COc3cc4ncnc(Nc5cccc(Br)c5F)c4cc3O2)CC1 [JGK068R] ?
Marked response: 1.4

----------
# TEST NAME: Protein binding (fraction unbound in blood and brain)
# ASSAY CONTEXT: blood
READOUT LABEL: Bound (blood) (%)

- COMPOUND: "Fc1c(Br)cccc1Nc1ncnc2cc3c(cc12)OCCO3"
  TEST RESULT: 98.30
- COMPOUND: "C#Cc1cccc(Nc2ncnc3cc(OCCOC)c(OCCOC)cc23)c1"
  TEST RESULT: 95.12
- COMPOUND: "Fc1c(I)cccc1Nc1ncnc2cc3c(cc12)OCCO3"
  TEST RESULT: 98.15
- COMPOUND: "C#Cc1cccc(Nc2ncnc3cc4c(cc23)OCCO4)c1"
  TEST RESULT: 98.65
- COMPOUND: "CN1CCN(CC2COc3cc4ncnc(Nc5cccc(Br)c5F)c4cc3O2)CC1 (racemic)"
  TEST RESULT: 93.69
- COMPOUND: "CN1CCN(C[C@H]2COc3cc4ncnc(Nc5cccc(Br)c5F)c4cc3O2)CC1 [JGK068S]"
  TEST RESULT: 94.04
- COMPOUND: "CN1CCN(C[C@@H]2COc3cc4ncnc(Nc5cccc(Br)c5F)c4cc3O2)CC1 [JGK068R]"
  TEST RESULT: 94.67
- COMPOUND: "CN(C)CC1COc2cc3ncnc(Nc4cccc(Br)c4F)c3cc2O1 (racemic)"
  TEST RESULT: 92.96
- COMPOUND: "Fc1cccc(Nc2ncnc3cc4c(cc23)OCCO4)c1F"
  TEST RESULT: 98.56
- COMPOUND: "C#Cc1cccc(Nc2ncnc3cc4c(cc23)OCCO4)c1F"
  TEST RESULT: 98.70
- COMPOUND: "Fc1c(Br)cccc1Nc1ncnc2cc3c(cc12)O[C@@H](CN1CCNCC1)CO3 [JGK083S]"
  TEST RESULT: 92.98
- COMPOUND: "Fc1c(Br)cccc1Nc1ncnc2cc3c(cc12)OC(CN1CCOCC1)CO3 (racemic)"
  TEST RESULT: 91.96
- COMPOUND: "Fc1c(Cl)cccc1Nc1ncnc2cc3c(cc12)OCCO3"
  TEST RESULT: 98.88

----------
# TEST NAME: in vitro
# ASSAY CONTEXT: Fu (blood)
READOUT LABEL: fraction unbound
Form field (numeric): enter value without unit.

Exam item: I would be grateful if you could share the reported fraction unbound for COc1cc2ncnc(Nc3cccc(Cl)c3F)c2cc1OC(=O)N1CCN(C)C[C@H]1C [AZD3759] .
Marked response: 0.052

----------
Quick reference: GI50 of the listed items.
# Tested on: HK301
# TEST NAME: GI50 assay (Cell Titer Glo proliferation, 3 days)
# Assay type: cell-based, human
# ASSAY CONTEXT: Homo sapiens, 72 h; HK301, 3 days; read-out: HK301 GI50
# output: bare number, implied unit µM

Please review the entries below; each comes with its answer.
- MOLECULE: "N#Cc1cccc(Nc2ncnc3cc4c(cc23)OCCO4)c1F"
  GI50, µM: 4.52
- MOLECULE: "CN(C)CC1COc2cc3ncnc(Nc4cccc(Br)c4F)c3cc2O1 (racemic)"
  GI50, µM: 0.734
- MOLECULE: "FC(F)(F)c1c(Cl)cccc1Nc1ncnc2cc3c(cc12)OCCO3"
  GI50, µM: 64.2
- MOLECULE: "CN(C)CC1COc2cc3c(Nc4cccc(Br)c4F)ncnc3cc2O1 (racemic)"
  GI50, µM: 6.84

Exam item: I would be grateful if you could share the reported GI50 for `Fc1ccc(Br)c(F)c1Nc1ncnc2cc3c(cc12)OCCO3` .
Marked response: 0.419

----------
# TEST NAME: Protein binding (fraction unbound in blood and brain)
# ASSAY CONTEXT: blood, Fu (blood), fraction unbound
READOUT LABEL: fraction unbound

(A) C#Cc1cccc(Nc2ncnc3cc4c(cc23)OCCO4)c1F
(B) CN(C)CC1COc2cc3ncnc(Nc4cccc(Br)c4F)c3cc2O1 (racemic)
Exam item: Which value of fraction unbound is smaller, the one for A or the one for B ? Write the label of whichever entry you select.
Marked response: A

----------
# System: HK301
# TEST NAME: GI50 assay (Cell Titer Glo proliferation, 3 days)
# Format: cell-based, human
# ASSAY CONTEXT: Homo sapiens, 72 h; HK301, 3 days; read-out: HK301 GI50
READOUT LABEL: GI50 (µM)
# output: bare number, implied unit µM

Please review the entries below; each comes with its answer.
- MOLECULE: "C[C@@H]1Oc2cc3ncnc(Nc4cccc(Br)c4F)c3cc2O[C@H]1C (racemic)"
  READOUT UNIT: "µM"
  TEST RESULT: 8.11
- MOLECULE: "N[C@H](Cc1ccc(Nc2ncnc3cc4c(cc23)OCCO4)cc1)C(=O)O"
  READOUT UNIT: "µM"
  TEST RESULT: 481

Exam item: I would be grateful if you could share the reported GI50 for Fc1c(Br)cccc1Nc1ncnc2cc3c(cc12)OCC(CCN1CCOCC1)O3 (racemic) .
Marked response: 2.56

Exam item: And for C#Cc1cccc(N(C(=O)OC(C)(C)C)C2=NC(OCC)N(C(=O)OC(C)(C)C)c3cc(OCCOC)c(OCCOC)cc32)c1 (stereo not shown) ?
Marked response: 1.13
